Tested on: mushroom tyrosinase (Agaricus bisporus, UniProt C7FF04)
Construct: purchased Sigma-Aldrich Co. LLC, St. Louis, MO, USA
Sequence (C7FF04 1-392 limits assumed): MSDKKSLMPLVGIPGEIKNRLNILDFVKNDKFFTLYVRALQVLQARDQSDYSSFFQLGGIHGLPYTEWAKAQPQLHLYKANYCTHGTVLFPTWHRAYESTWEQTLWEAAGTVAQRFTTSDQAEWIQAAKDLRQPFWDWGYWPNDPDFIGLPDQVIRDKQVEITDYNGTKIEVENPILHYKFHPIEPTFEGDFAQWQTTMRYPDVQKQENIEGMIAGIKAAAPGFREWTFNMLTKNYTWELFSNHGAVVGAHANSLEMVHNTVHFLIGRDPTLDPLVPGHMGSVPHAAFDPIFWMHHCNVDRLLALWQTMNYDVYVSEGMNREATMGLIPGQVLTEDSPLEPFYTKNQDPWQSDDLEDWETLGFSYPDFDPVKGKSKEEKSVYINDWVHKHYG
Assay name: Diphenolase tyrosinase assay (enzymatic rate, L-dopa as substrate)
Type: biochemical
Endpoint name: IC50 (µM)
Numbers only; they are read as µM.

Query :: Sample O=C(O)/C=C/c1ccc(O)cc1 — what was its IC50?
Result :: 153

Query :: IC50 for O=C(/C=C/c1ccc(O)c(O)c1)O[C@H](Cc1ccc(O)c(O)c1)C(=O)O ?
Result :: 7.33

Query :: Name the reported IC50 value associated with the molecule O=C(O)/C=C/c1ccccc1
Result :: 944

###

I'd be grateful if you could share measured EC50 for these entries.
Tested on: mushroom tyrosinase (Agaricus bisporus)
Construct: purchased Sigma-Aldrich Co. LLC, St. Louis, MO, USA
Assay name: Diphenolase tyrosinase assay (enzymatic rate, L-dopa as substrate)
Type: biochemical
Assay context: Tyrosinase stimulation EC50 ± SD, relative EC50, value in brackets
Answer in µM, number only, no unit symbol.

Query :: # query: EC50 of entry O=C(O)/C=C/c1ccc(O)c(O)c1
Result :: 228

Query :: Sample O=C(CCc1ccc(O)c(O)c1)c1c(O)cc(O)c(C2OC(CO)C(O)C(O)C2O)c1O (centres unmarked) — what was its EC50?
Result :: 265

###

Tested on: mushroom tyrosinase (Agaricus bisporus, UniProt C7FF04)
Construct: purchased Sigma-Aldrich Co. LLC, St. Louis, MO, USA
Assay name: Diphenolase tyrosinase assay (enzymatic rate, L-dopa as substrate)
Assay type: biochemical
Assay context: Tyrosinase stimulation EC50 ± SD, relative EC50, 50% of maximal response
Endpoint name: EC50 (µM)
Please state the figure in µM; there is no need to write the unit.

Query :: Which EC50 value is on record for O=C(CCc1ccc(O)c(O)c1)c1c(O)cc(O)c(C2OC(CO)C(O)C(O)C2O)c1O (centres unmarked) ?
Result :: 265

Query :: I'd like to know its EC50. The molecule in question is O=C(O)/C=C/c1ccc(O)c(O)c1
Result :: 228
